Cited source: ChEMBL document CHEMBL1129133

system-under-test: cGMP-specific 3',5'-cyclic phosphodiesterase (Homo sapiens, UniProt O76074)
pIC50: −log10 of the molar value.

{"smiles-string": "CCCc1nn(C)c2c(=O)[nH]c(-c3ccccc3OCC)nc12", "pIC50": 7.57}
